experiment: Cell viability / cytotoxicity, LDH assay in mouse peritoneal cells; type: cell-based; settings: C57BL6; mouse peritoneal cells, LDH assay, cultured 24 h (supernatants harvested at 22 h); read-out: Cytotoxicity CC50 (95% Limits of Confidence)
result-type: CC50 at 22 h (µM)
Please give a number only; it is taken to be in µM.

The molecule listed as C[C@@H]1CC[C@@]2(OC1)O[C@H]1[C@@H](O)[C@H]3[C@@H]4CC[C@H]5C[C@@H](O[C@@H]6O[C@H](CO)[C@H](O[C@@H]7O[C@H](CO)[C@@H](O)[C@H](O[C@@H]8OC[C@@H](O)[C@H](O)[C@H]8O)[C@H]7O[C@@H]7O[C@H](CO)[C@H](O)[C@H](O[C@@H]8O[C@H](CO)[C@@H](O)[C@H](O)[C@H]8O)[C@H]7O)[C@H](O)[C@H]6O)[C@H](O)C[C@]5(C)[C@H]4CC[C@]3(C)[C@H]1[C@@H]2C [Compound 5, digitonin, reference compound] shows CC50 at 22 h equal to 5.83
